All figures here come from the kinase profiling compilation of Christmann-Franck et al. (2016).

Entries and their kinase still bound, per cent of control
system_under_test: CLK2 (human)
measurement_notes: KINOMEscan competition binding
test_parameters: compound 10.0 µM
Report the value in % with no unit label.

- line_notation: "O=c1[nH]c2ccccc2n1C1CCN(Cc2ccc(-c3nc4cc5[nH]cnc5cc4nc3-c3ccccc3)cc2)CC1"
  system_under_test: "CLK2 (human)"
  attribute_measured: "kinase still bound, per cent of control"
  measurement: 90
- line_notation: "CCN(CCO)CCCOc1ccc2c(Nc3cc(CC(=O)Nc4cccc(F)c4)[nH]n3)ncnc2c1"
  system_under_test: "CLK2 (human)"
  attribute_measured: "kinase still bound, per cent of control"
  measurement: 67
- line_notation: "COc1cc(N2CCC(C(N)=O)CC2)ccc1Nc1nc(N)c(Cl)c(Nc2ccccc2S(=O)(=O)C(C)C)n1"
  system_under_test: "CLK2 (human)"
  attribute_measured: "kinase still bound, per cent of control"
  measurement: 4.6

Here is another molecule to look at.
Query :: Quick check: kinase still bound, per cent of control on CLK2 (human), item CCN1CCN(Cc2ccc(NC(=O)c3ccc(C)c(/C=C/c4cnc5[nH]ccc5c4OC)c3)cc2C(F)(F)F)CC1 ?
Result :: 71

###

system_under_test: RPS6KA1 KD1 (human) (UniProt Q15418)
Sequence (Q15418 whole entry, looked up): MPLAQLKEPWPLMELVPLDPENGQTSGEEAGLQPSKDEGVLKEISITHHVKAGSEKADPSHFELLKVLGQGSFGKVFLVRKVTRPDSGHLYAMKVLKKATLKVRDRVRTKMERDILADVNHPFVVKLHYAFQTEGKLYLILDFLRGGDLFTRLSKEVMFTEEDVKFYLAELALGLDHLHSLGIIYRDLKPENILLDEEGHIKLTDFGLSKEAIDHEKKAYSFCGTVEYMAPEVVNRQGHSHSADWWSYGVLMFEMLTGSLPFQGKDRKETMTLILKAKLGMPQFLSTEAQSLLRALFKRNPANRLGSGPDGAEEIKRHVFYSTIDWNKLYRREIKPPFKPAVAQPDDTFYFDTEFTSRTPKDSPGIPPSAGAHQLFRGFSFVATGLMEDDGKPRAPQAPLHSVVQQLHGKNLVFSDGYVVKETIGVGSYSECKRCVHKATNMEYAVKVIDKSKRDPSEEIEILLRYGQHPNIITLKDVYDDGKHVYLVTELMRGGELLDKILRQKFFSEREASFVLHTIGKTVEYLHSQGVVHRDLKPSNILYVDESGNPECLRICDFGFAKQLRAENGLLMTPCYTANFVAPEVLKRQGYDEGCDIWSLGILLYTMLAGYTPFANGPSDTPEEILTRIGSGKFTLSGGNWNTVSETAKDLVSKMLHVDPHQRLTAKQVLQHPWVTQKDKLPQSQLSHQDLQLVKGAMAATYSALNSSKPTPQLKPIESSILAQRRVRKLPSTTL
measurement_notes: KINOMEscan competition binding
test_parameters: compound 10.0 µM
Lab note: cut-off is 70%. Strictly less in kinase still bound, per cent of control is TRUE. Exactly 70% or more is FALSE.

Record excerpt, results attached:
- compound: "COc1cc(N2CCC(C(N)=O)CC2)ccc1Nc1nc(N)c(Cl)c(Nc2ccccc2S(=O)(=O)C(C)C)n1"
  category: "FALSE"
- compound: "CCc1nc(-c2cccc(C)c2)c(-c2ccnc(NC(=O)c3ccccc3)c2)s1"
  category: "FALSE"
- compound: "CCOc1cc(N2CCC(O)CC2)ccc1Nc1ncc2c(n1)N(C)c1ccccc1C(=O)N2C"
  category: "FALSE"
- compound: "Cc1cn(-c2cc(C(=O)Nc3ccc(C)c(NC(=O)c4ccno4)c3)cc(C(F)(F)F)c2)cn1"
  category: "FALSE"
- compound: "COc1cc(C)c(Sc2cnc(NC(=O)c3ccc(CNC(C)C(C)C)cc3)s2)cc1C(=O)N1CCN(C(C)=O)CC1 (stereo not drawn)"
  category: "FALSE"
- compound: "C=CC(=O)Nc1ccc(C(=O)c2sc(Nc3ccc(N4CCN(C)CC4)cc3OC)nc2N)cc1"
  category: "TRUE"
- compound: "COc1cc2ncnc(Nc3cccc(Cl)c3)c2cc1OC"
  category: "FALSE"
- compound: "N#Cc1cc(-c2ccnc(Nc3ccc(-n4cnc(-c5cccnc5)n4)cc3)n2)cc(N2CCOCC2)c1"
  category: "TRUE"
- compound: "CCN1CCN(Cc2ccc(NC(=O)c3ccc(C)c(/C=C/c4cnc5[nH]ccc5c4OC)c3)cc2C(F)(F)F)CC1"
  category: "TRUE"
- compound: "CNC(=O)Nc1ccc(-c2nc(N3CC4CCC(C3)O4)c3cnn(C4CCC5(CC4)OCCO5)c3n2)cc1"
  category: "FALSE"

Moving on to the next compound.
Query :: Please determine if N#C/C(=C1/Nc2ccccc2S1)c1ccnc(NCCc2cccnc2)n1 is below 70% in terms of kinase still bound, per cent of control.
Result :: FALSE
